Catalogue of IC50 readings, one per entry.
- experimental-system: recombinant human α1D receptor (Homo sapiens)
- Construct: expressed in transfected cells; host or cells: human embryonic kidney 293 cells (HEK93 [sic]), membranes
- Sequence (P25100 whole entry): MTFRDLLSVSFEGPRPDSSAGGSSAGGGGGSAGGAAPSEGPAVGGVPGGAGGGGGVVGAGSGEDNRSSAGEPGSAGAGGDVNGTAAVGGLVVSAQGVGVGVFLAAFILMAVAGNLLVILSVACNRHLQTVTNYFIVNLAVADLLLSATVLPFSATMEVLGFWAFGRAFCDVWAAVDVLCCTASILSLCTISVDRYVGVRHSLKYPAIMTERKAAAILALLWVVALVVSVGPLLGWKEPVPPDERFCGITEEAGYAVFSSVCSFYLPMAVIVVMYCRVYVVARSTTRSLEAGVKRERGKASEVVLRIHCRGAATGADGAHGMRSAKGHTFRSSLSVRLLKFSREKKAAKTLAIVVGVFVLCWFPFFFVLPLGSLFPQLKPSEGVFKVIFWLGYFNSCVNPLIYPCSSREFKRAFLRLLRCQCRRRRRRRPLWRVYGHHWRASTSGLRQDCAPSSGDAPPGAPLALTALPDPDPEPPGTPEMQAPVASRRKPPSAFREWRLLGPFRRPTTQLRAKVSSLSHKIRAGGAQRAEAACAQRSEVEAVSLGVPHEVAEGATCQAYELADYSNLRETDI
- assay-details: Adrenergic α1D selectivity assay, [3H]-prazosin binding to membranes
- condition-notes: inhibition of [3H]-prazosin binding, HEK cell membranes, read-out: α1 bind pIC50 (converted)
Where a name gives a salt, the structure may show the parent alone.

| compound | experimental-system | IC50 |
| --- | --- | --- |
| Cc1cccc(CCNCCC(=O)N(CCNCCc2ccc(O)c3[nH]c(=O)ccc23)C2CCCCCC2)c1 [Example 8, bis(trifluoroacetate)] | recombinant human α1D receptor (Homo sapiens) | 100 nM |
| O=C1COc2c(CCNCCN(C(=O)CCOCCc3ccc(F)cc3)C3CCCCC3)ccc(O)c2N1 [Example 75, trifluoroacetate] | recombinant human α1D receptor (Homo sapiens) | 631 nM |
| CC[C@@H](C)N(CCNCCc1ccc(O)c2[nH]c(=O)ccc12)C(=O)CCOCCc1ccccc1.Cl [Example 79, hydrochloride] | recombinant human α1D receptor (Homo sapiens) | 631 nM |
| O=C1COc2c(CCNCCN(C(=O)CCNCCc3cccc(F)c3F)C3CCCCC3)ccc(O)c2N1 [Example 36, bis(trifluoroacetate)] | recombinant human α1D receptor (Homo sapiens) | 398 nM |
| O=C1COc2c(CCNCCN(C(=O)CCNCCc3cccc(F)c3)C3CCCCCC3)ccc(O)c2N1 [Example 69, bis(trifluoroacetate)] | recombinant human α1D receptor (Homo sapiens) | 200 nM |
| O=C1COc2c(CCNCCN(C(=O)CCNCCc3cc(F)cc(F)c3)C3CCCCCC3)ccc(O)c2N1 [Example 65, bis(trifluoroacetate)] | recombinant human α1D receptor (Homo sapiens) | 398 nM |
| O=C(CCNCCc1ccc(F)c(F)c1)N(CCNCCc1ccc(O)c2[nH]c(=O)ccc12)C1CCCCC1 [Example 16, bis(trifluoroacetate)] | recombinant human α1D receptor (Homo sapiens) | 316 nM |
| CCCC[C@@H](C)N(CCNCCc1ccc(O)c2c1OCC(=O)N2)C(=O)CCNCCc1cc(C)ccc1F [Example 56, bis(trifluoroacetate)] | recombinant human α1D receptor (Homo sapiens) | 31.6 nM |
| CC(C)[C@@H](C)N(CCNCCc1ccc(O)c2[nH]c(=O)ccc12)C(=O)CCOCCc1ccccc1.Cl [Example 80, hydrochloride] | recombinant human α1D receptor (Homo sapiens) | 501 nM |
| C[C@H](C1CCCCC1)N(CCNCCc1ccc(O)c2c1OCC(=O)N2)C(=O)CCNCCc1ccccc1 [Example 61, bis(trifluoroacetate)] | recombinant human α1D receptor (Homo sapiens) | 20 nM |
| O=C(CCNCCc1ccccc1)N(CCNCCc1ccc(O)c2[nH]c(=O)ccc12)C1CCCCCC1 [Example 7, bis(trifluoroacetate)] | recombinant human α1D receptor (Homo sapiens) | 126 nM |
| O=C1COc2c(CCNCCN(C(=O)CCNCCc3cc(F)ccc3F)C3CCCCC3)ccc(O)c2N1 [Example 38, bis(trifluoroacetate)] | recombinant human α1D receptor (Homo sapiens) | 158 nM |
| CCCC[C@@H](C)N(CCNCCc1ccc(O)c2c1OCC(=O)N2)C(=O)CCNCCc1ccc(F)c(Cl)c1 [Example 48, bis(trifluoroacetate)] | recombinant human α1D receptor (Homo sapiens) | 126 nM |

Taken from patent US20100056508A1.
